# System: 598228-144-R-J1-PDC complex spheroids, viability
# Assay Procedure: Anticancer human tumor 598228-144-R-J1-PDC patient-derived serous endometrial adenocarcinoma cell line growth inhibition [CLK]
# Stated Conditions: second compound 1 µM; first compound 0.01 µM; stronger effect = lower value
Parameter Measured: viability, T/C (%)
Give bare numbers, in %.

Please give viability, T/C for each item listed below.
1. CCN1CCN(Cc2ccc(Nc3ncc(F)c(-c4cc(F)c5nc(C)n(C(C)C)c5c4)n3)nc2)CC1 + CNC(=O)c1ccc(Nc2nc(OC3CCCC3)c3c(-c4ccc5nc(C)oc5c4)c[nH]c3n2)c(OC)c1
2. CCN1CCN(Cc2ccc(Nc3ncc(F)c(-c4cc(F)c5nc(C)n(C(C)C)c5c4)n3)nc2)CC1 + CN1CCN(c2cc(C(=O)Nc3cc4cc(-c5cnn(C)c5)ccc4cn3)ccn2)CC1
3. Cn1ncnc1[C@H]1c2n[nH]c(=O)c3cc(F)cc(c23)N[C@@H]1c1ccc(F)cc1 + CNC(=O)c1ccc(Nc2nc(OC3CCCC3)c3c(-c4ccc5nc(C)oc5c4)c[nH]c3n2)c(OC)c1
4. Cn1ncnc1[C@H]1c2n[nH]c(=O)c3cc(F)cc(c23)N[C@@H]1c1ccc(F)cc1 + CN1CCN(c2cc(C(=O)Nc3cc4cc(-c5cnn(C)c5)ccc4cn3)ccn2)CC1
5. CCc1c2c(nc3ccc(O)cc13)-c1cc3c(c(=O)n1C2)COC(=O)[C@]3(O)CC + CNC(=O)c1ccc(Nc2nc(OC3CCCC3)c3c(-c4ccc5nc(C)oc5c4)c[nH]c3n2)c(OC)c1
6. COc1c(OCCCN2CCOCC2)ccc2c3n(c(=NC(=O)c4cnc(N)nc4)nc12)CCN3 + CN1CCN(c2cc(C(=O)Nc3cc4cc(-c5cnn(C)c5)ccc4cn3)ccn2)CC1
7. COc1c(OCCCN2CCOCC2)ccc2c3n(c(=NC(=O)c4cnc(N)nc4)nc12)CCN3 + CNC(=O)c1ccc(Nc2nc(OC3CCCC3)c3c(-c4ccc5nc(C)oc5c4)c[nH]c3n2)c(OC)c1

-- reply
1. 89.8
2. 5.67
3. 117
4. 1.32
5. 95
6. 0.94
7. 61.4

-- ask Write down the reported viability, T/C of CCc1c2c(nc3ccc(O)cc13)-c1cc3c(c(=O)n1C2)COC(=O)[C@]3(O)CC + CN1CCN(c2cc(C(=O)Nc3cc4cc(-c5cnn(C)c5)ccc4cn3)ccn2)CC1 , test system: 598228-144-R-J1-PDC complex spheroids, viability.
-- reply 0.98

---

Kindly state viability, T/C for each of the entries shown.
# System: 598228-144-R-J1-PDC complex spheroids, viability
# Assay Procedure: Anticancer human tumor 598228-144-R-J1-PDC cell line growth inhibition [CLK];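 further: spheroids exposed to compounds for seven days before readout; 100% = DMSO vehicle control wells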
# Stated Conditions: second compound 3.16 µM; first compound 3.16 µM; stronger effect = lower value
One number for each entry, in %.

Below, each entry is followed by its recorded viability, T/C result.
[[record]]
compound = "C=CC(=O)N1CCN(c2nc(=O)n(-c3c(C)ccnc3C(C)C)c3nc(-c4c(O)cccc4F)c(F)cc23)C(C)C1 (stereo unspecified) + CN1CCN(c2cc(C(=O)Nc3cc4cc(-c5cnn(C)c5)ccc4cn3)ccn2)CC1"
u = "%"
reported = 3.18

[[record]]
compound = "O=C(c1cc(Cc2n[nH]c(=O)c3ccccc23)ccc1F)N1CCN(C(=O)C2CC2)CC1 + CNC(=O)c1ccc(Nc2nc(OC3CCCC3)c3c(-c4ccc5nc(C)oc5c4)c[nH]c3n2)c(OC)c1"
u = "%"
reported = 106

[[record]]
compound = "CC1(C)CCC(CN2CCN(c3ccc(C(=O)NS(=O)(=O)c4ccc(NCC5CCOCC5)c([N+](=O)[O-])c4)c(Oc4cnc5[nH]ccc5c4)c3)CC2)=C(c2ccc(Cl)cc2)C1 + CN1CCN(c2cc(C(=O)Nc3cc4cc(-c5cnn(C)c5)ccc4cn3)ccn2)CC1"
u = "%"
reported = 3.99


Batch of 2 compounds: report viability, T/C for each.
1. CC1(C)CCC(CN2CCN(c3ccc(C(=O)NS(=O)(=O)c4ccc(NCC5CCOCC5)c([N+](=O)[O-])c4)c(Oc4cnc5[nH]ccc5c4)c3)CC2)=C(c2ccc(Cl)cc2)C1 + CNC(=O)c1ccc(Nc2nc(OC3CCCC3)c3c(-c4ccc5nc(C)oc5c4)c[nH]c3n2)c(OC)c1
2. CC(=O)O[C@H]1C(=O)[C@@]2(C)[C@H]([C@H](OC(=O)c3ccccc3)[C@]3(O)C[C@H](OC(=O)[C@H](O)[C@@H](NC(=O)c4ccccc4)c4ccccc4)C(C)=C1C3(C)C)[C@]1(OC(C)=O)CO[C@@H]1C[C@@H]2O + CNC(=O)c1ccc(Nc2nc(OC3CCCC3)c3c(-c4ccc5nc(C)oc5c4)c[nH]c3n2)c(OC)c1

-- reply
1: 89.3; 2: 105

---

# System: 598228-144-R-J1-PDC complex spheroids, viability
# Assay Procedure: Anticancer human tumor 598228-144-R-J1-PDC cell line growth inhibition [CLK]; active = viability on the fitted dose curve at most 10% of control; inactive = the rest;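 further: spheroids exposed to compounds for seven days before readout; 100% = DMSO vehicle control wells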
# Stated Conditions: second compound 3.16 µM; first compound 0.0949 µM
Hello, when you answer, please use one of the following outcomes: t for active, f for inactive

Below, 4 molecules whose answers are already recorded.
[[record]]
molecule = "CC(C)CC(NC(=O)C(Cc1ccccc1)NC(=O)c1cnccn1)B(O)O (stereo unspecified) + CNC(=O)c1ccc(Nc2nc(OC3CCCC3)c3c(-c4ccc5nc(C)oc5c4)c[nH]c3n2)c(OC)c1"
class_assignment = "t"

[[record]]
molecule = "C=CC(=O)Nc1cc(Nc2nccc(-c3cn(C)c4ccccc34)n2)c(OC)cc1N(C)CCN(C)C + CNC(=O)c1ccc(Nc2nc(OC3CCCC3)c3c(-c4ccc5nc(C)oc5c4)c[nH]c3n2)c(OC)c1"
class_assignment = "f"

[[record]]
molecule = "C=CC(=O)Nc1cc(Nc2nccc(-c3cn(C)c4ccccc34)n2)c(OC)cc1N(C)CCN(C)C + CN1CCN(c2cc(C(=O)Nc3cc4cc(-c5cnn(C)c5)ccc4cn3)ccn2)CC1"
class_assignment = "t"

[[record]]
molecule = "NC(=O)C(=Cn1cnc(-c2cc(C(F)(F)F)cc(C(F)(F)F)c2)n1)c1cncnc1 + CN1CCN(c2cc(C(=O)Nc3cc4cc(-c5cnn(C)c5)ccc4cn3)ccn2)CC1"
class_assignment = "t"


-- ask Hi, sorry to bother you, what did the test record for CC(C)CC(NC(=O)C(Cc1ccccc1)NC(=O)c1cnccn1)B(O)O (stereo unspecified) + CN1CCN(c2cc(C(=O)Nc3cc4cc(-c5cnn(C)c5)ccc4cn3)ccn2)CC1 ?
-- reply t

-- ask What about this molecule? NC(=O)C(=Cn1cnc(-c2cc(C(F)(F)F)cc(C(F)(F)F)c2)n1)c1cncnc1 + CNC(=O)c1ccc(Nc2nc(OC3CCCC3)c3c(-c4ccc5nc(C)oc5c4)c[nH]c3n2)c(OC)c1
-- reply f

---

# Tested on: 598228-144-R-J1-PDC complex spheroids, viability
# Assay Procedure: Anticancer human tumor 598228-144-R-J1-PDC cell line growth inhibition [CLK];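 further: spheroids exposed to compounds for seven days before readout; 100% = DMSO vehicle control wells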
# Stated Conditions: second compound 0.316 µM; first compound 3.16 µM; stronger effect = lower value
Our labelling divides records by viability, T/C into ranges: lower range = under 20%, middle range = from 20% up to 80%, upper range = 80% and over

[[record]]
compound = "CC(CO)NC(=O)c1cc(-c2ccc(Cl)cc2)nn(-c2cnn(C)c2)c1=O (centres undefined) + CNC(=O)c1ccc(Nc2nc(OC3CCCC3)c3c(-c4ccc5nc(C)oc5c4)c[nH]c3n2)c(OC)c1"
class_assignment = "upper range"

[[record]]
compound = "CC(=O)O[C@H]1C(=O)[C@@]2(C)[C@H]([C@H](OC(=O)c3ccccc3)[C@]3(O)C[C@H](OC(=O)[C@H](O)[C@@H](NC(=O)c4ccccc4)c4ccccc4)C(C)=C1C3(C)C)[C@]1(OC(C)=O)CO[C@@H]1C[C@@H]2O + CN1CCN(c2cc(C(=O)Nc3cc4cc(-c5cnn(C)c5)ccc4cn3)ccn2)CC1"
class_assignment = "lower range"

[[record]]
compound = "C=CC(=O)N1CCN(c2nc(=O)n(-c3c(C)ccnc3C(C)C)c3nc(-c4c(O)cccc4F)c(F)cc23)C(C)C1 (centres undefined) + CN1CCN(c2cc(C(=O)Nc3cc4cc(-c5cnn(C)c5)ccc4cn3)ccn2)CC1"
class_assignment = "middle range"

[[record]]
compound = "COc1ccc([C@@H](O)c2cc(-c3ncnc4cc(N5CCOCC5)ccc34)c(F)cc2Cl)nn1 + CN1CCN(c2cc(C(=O)Nc3cc4cc(-c5cnn(C)c5)ccc4cn3)ccn2)CC1"
class_assignment = "lower range"

[[record]]
compound = "CC1(C)CCC(CN2CCN(c3ccc(C(=O)NS(=O)(=O)c4ccc(NCC5CCOCC5)c([N+](=O)[O-])c4)c(Oc4cnc5[nH]ccc5c4)c3)CC2)=C(c2ccc(Cl)cc2)C1 + CN1CCN(c2cc(C(=O)Nc3cc4cc(-c5cnn(C)c5)ccc4cn3)ccn2)CC1"
class_assignment = "lower range"


-- ask Which category fits this record: CCCS(=O)(=O)Nc1ccc(F)c(C(=O)c2c[nH]c3ncc(-c4ccc(Cl)cc4)cc23)c1F + CN1CCN(c2cc(C(=O)Nc3cc4cc(-c5cnn(C)c5)ccc4cn3)ccn2)CC1
-- reply lower range

-- ask Next up: O=c1[nH]cc(F)c(=O)[nH]1 + CN1CCN(c2cc(C(=O)Nc3cc4cc(-c5cnn(C)c5)ccc4cn3)ccn2)CC1
-- reply lower range

-- ask Try CC(=O)O[C@H]1C(=O)[C@@]2(C)[C@H]([C@H](OC(=O)c3ccccc3)[C@]3(O)C[C@H](OC(=O)[C@H](O)[C@@H](NC(=O)c4ccccc4)c4ccccc4)C(C)=C1C3(C)C)[C@]1(OC(C)=O)CO[C@@H]1C[C@@H]2O + CNC(=O)c1ccc(Nc2nc(OC3CCCC3)c3c(-c4ccc5nc(C)oc5c4)c[nH]c3n2)c(OC)c1 next.
-- reply upper range
